# experimental target: Kallikrein-7 (Homo sapiens)
# Sequence (P49862 whole entry): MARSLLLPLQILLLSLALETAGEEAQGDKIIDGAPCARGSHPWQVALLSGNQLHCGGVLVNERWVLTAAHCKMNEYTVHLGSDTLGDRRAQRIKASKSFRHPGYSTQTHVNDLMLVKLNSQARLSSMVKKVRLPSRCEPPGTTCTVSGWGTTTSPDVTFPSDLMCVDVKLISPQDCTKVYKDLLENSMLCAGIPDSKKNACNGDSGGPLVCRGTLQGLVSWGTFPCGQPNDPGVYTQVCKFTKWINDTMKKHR
# assay name: Inhibition of recombinant human KLK7 expressed in Pichia pastoris X-33 using KHLY-pNA as substrate at pH 8 and 298 K measured every 60 secs for 600 secs
Bridge positions count the residues as written; N and C are the ends. Square brackets hold non-standard residues; d marks the D form. Peptide text beside a SMILES is read from it. Phe(4-NO2) = N[C@@H](Cc1ccc([N+](=O)[O-])cc1)C(=O)O; Phe(4-Cl) = N[C@@H](Cc1ccc(Cl)cc1)C(=O)O; Phe(4-I) = N[C@@H](Cc1ccc(I)cc1)C(=O)O; Phe(4-Me) = Cc1ccc(C[C@H](N)C(=O)O)cc1
measurement name: IC50

The following compounds have reported results that may help.
N=C(N)NCCC[C@@H]1NC(=O)CNC(=O)[C@H](CC(=O)O)NC(=O)[C@@H]2CCCN2C(=O)[C@H](Cc2ccccc2)NC(=O)[C@@H]2CSSC[C@H](NC1=O)C(=O)N[C@@H](CCC(N)=O)C(=O)N[C@@H](Cc1ccc(I)cc1)C(=O)N[C@@H](CO)C(=O)N[C@@H](CCC(=O)O)C(=O)N1CCC[C@H]1C(=O)N1CCC[C@H]1C(=O)N[C@@H](CCC(=O)O)C(=O)N2 (cyclo(CFPDGRCQ[Phe(4-I)]SEPPE); disulfide 1-7) : > 10 µM
Cc1ccc(C[C@@H]2NC(=O)[C@H](CCC(N)=O)NC(=O)[C@@H]3CSSC[C@H](NC(=O)[C@H](CCC(=O)O)NC(=O)[C@@H]4CCCN4C(=O)[C@@H]4CCCN4C(=O)[C@H](CCC(=O)O)NC(=O)[C@H](CO)NC2=O)C(=O)N[C@@H](Cc2ccccc2)C(=O)N2CCC[C@H]2C(=O)N[C@@H](CC(=O)O)C(=O)NCC(=O)N[C@@H](CCCNC(=N)N)C(=O)N3)cc1 (cyclo(CFPDGRCQ[Phe(4-Me)]SEPPE); disulfide 1-7) : > 10 µM
N=C(N)NCCC[C@@H]1NC(=O)CNC(=O)[C@H](CC(=O)O)NC(=O)[C@@H]2CCCN2C(=O)[C@H](Cc2ccccc2)NC(=O)[C@@H]2CSSC[C@H](NC1=O)C(=O)N[C@@H](CCC(N)=O)C(=O)N[C@@H](Cc1ccc([N+](=O)[O-])cc1)C(=O)N[C@@H](CO)C(=O)N[C@@H](CCC(=O)O)C(=O)N1CCC[C@H]1C(=O)N1CCC[C@H]1C(=O)N[C@@H](CCC(=O)O)C(=O)N2 (cyclo(CFPDGRCQ[Phe(4-NO2)]SEPPE); disulfide 1-7) : > 10 µM

From here, focus on the item given below.
Record request: IC50 value, item N=C(N)NCCC[C@@H]1NC(=O)CNC(=O)[C@H](CC(=O)O)NC(=O)[C@@H]2CCCN2C(=O)[C@H](Cc2ccccc2)NC(=O)[C@@H]2CSSC[C@H](NC1=O)C(=O)N[C@@H](CCC(N)=O)C(=O)N[C@@H](Cc1ccc(Cl)cc1)C(=O)N[C@@H](CO)C(=O)N[C@@H](CCC(=O)O)C(=O)N1CCC[C@H]1C(=O)N1CCC[C@H]1C(=O)N[C@@H](CCC(=O)O)C(=O)N2 (cyclo(CFPDGRCQ[Phe(4-Cl)]SEPPE); disulfide 1-7)
> 10 µM

These entries and their values trace back to ChEMBL document CHEMBL4376864.
